Recorded Killing percentage, ADCC (PBMC, HEK293-CLDN18.2 cells), 0.0001024 µg/ml values for a group of binders are listed next.
molecular target: Claudin 18.2 (CLDN18.2), expressed on CHOS-CLDN 18.2 / HEK293-CLDN 18.2 / HCC827-CLDN 18.2 cells (human, UniProt P56856-2 1-261); test: cell-based or functional assay
property-label: Killing percentage, ADCC (PBMC, HEK293-CLDN18.2 cells), 0.0001024 µg/ml (%)

{"binder": "QP14371433 (antibody, human IgG1, kappa, V domains shown, Humanized from QP190191; also called QP14331437) VH: EVQLVESGGGLVKPGGSLRLSCAASGFTFSNYAMSWVRQAPGKGLEWVASIISGGRTYYLDSEKGRFTISRDNAKNSLYLQMNSLRAEDTAVYYCTRIYYGNSFDYWGQGTLVTVSS VL: DIVMTQSPDSLAVSLGERATINCKSSQSLLNSGNQKNYLTWYQQKPGQPPKLLIYWASTRESGVPDRFSGSGSGTDFTLTISSLQAEDVAVYYCQNDYSYPFTFGQGTKLEIKR", "reported": 8.31}
{"binder": "QP14631461 (antibody, human IgG1, kappa, V domains shown, also called QP14611463) VH: QVQLVQSGAEVKKPGASVKVSCKASGYTFTSYIMHWVRQAPGQGLEWMGYINPYNDGTKYNEKFKGRVTMTRDTSTSTVYMELSSLRSEDTAVYYCARLGFTTRNAMDYWGQGTLVTVSS VL: DIVMTQSPDSLAVSLGERATINCKSSQSLLNSGNQKNYLAWYQQKPGQPPKLLIYGASTRESGVPDRFTGSGSGTDFTLTISSLQAEDVAVYYCQNDHSYPFTFGQGTKLEIKR", "reported": 4.3}
{"binder": "QP14451440 (antibody, human IgG1, kappa, V domains shown, Humanized from QP192193; also called QP14401445) VH: QVQLVQSGAEVKKPGASVKVSCKASGYAFSSYWMNWVRQAPGQGLEWIGQIYPGNGDTTYNGKFKGRVTMTADKSTSTVYMELSSLRSEDTAVYFCARFVKGNAMDYWGQGTLVTVSS VL: DIVMTQSPDSLAVSLGERATISCKSSQSLLNSGNQKNYLTWYQQKPGQPPKLLIYWASTRESGVPDRFSGSGSGTDFTLTISSLQAEDVAVYYCQNAYSYPFTFGQGTKLEIKR", "reported": -1.11}
